biological target: T1, RSV postfusion F (postF), subtype A (respiratory syncytial virus subtype A, UniProt P03420 26-513); test: BLI, IgG
T1 construct: also called Postfusion subtype A; F deltaFP
MEASURED_PROPERTY: Kd (nM)
Numbers only, in nM.

Field: example entries. Status: answers known.
[
  {
    "BINDER": "ADI-14365 (antibody, V domains shown, full-length IgG; also called Ab 33) VH: QVQLVQSGAEVKKPGASVKVSCKVSGYTLTKLSMHWVRQAPGKGLEWMGFFDPEDGDTLYAQKFQGRVTMTEDTSSDTPYMELRSLRSEDTAVYYCASPAAAGQFDYWGQGTLVTVSS VL: DIVMTQSPSSLSASVGDRVTITCRASQFISSYLHWYQQKTGKAPKLLIYAASSLQSGVPSRFSGSGSGTDFTLTISSLQPEDFATYYCQQSYNTPRTFGQGTKLEIK",
    "Kd, nM": 10.3
  },
  {
    "BINDER": "ADI-14383 (antibody, V domains shown, full-length IgG; also called Ab 51) VH: QITLKESGPTLVKPTQTLTLTCTFSGFSLSTSGVGVGWIRQPPGKALEWLALIYWDEDKRYSPSLKTRLTITKDTSRNQVKLTMTNMDPVDTATYYCAHQYYDILTGYPSPGAFDIWGQGTTVTVSS VL: QPVLTQPASVSGSPGQSITISCTGTSSDVVSYNLVSWFQQHPGKAPKLMIYEVTRRPSGVSNRFSGSKSGNTASLTISGLQAEDEADYYCCAYTGTPVVFGGGTKLTVL",
    "Kd, nM": 0.434
  }
]

Moving on to another binder below.
The binder listed as ADI-14348 (antibody, V domains shown, full-length IgG; also called Ab 16) VH: QVQLVESGGGVAQPGGSLRLSCVASGFTFSNYGMHWVRQAPGKGLEWVAFIRSDGSKKYYGDSGKGRFTISRDNSKNTLYLQMNSLRAEDTALYYCARERAGATFAFDIWGQGTTVTVSS VL: QSALTQPRSVSGSPGQSVTISCTGTSSDVGGYNFVSWYQHHPGKAPKLMIYDVTNRPSGVPDRFSGSKSGNTASLTISGLQADDEADYYCCSYAGGFTFYVFGTGTKVTVL has a reported Kd of 5.66
